- tested-on: HIV-1 Env of pseudovirus MGRM-C-26 (HIV-1)
- protocol-text: cell-based or functional assay
As shown below, each of these binders has a reported Polyclonal Transfectant Neutralization Index value.
# respond with the number and nothing more

Solved cases (2 shown):
binder="PGT-126 (B cell culture well 5141_B17) (antibody, V domains shown) VH: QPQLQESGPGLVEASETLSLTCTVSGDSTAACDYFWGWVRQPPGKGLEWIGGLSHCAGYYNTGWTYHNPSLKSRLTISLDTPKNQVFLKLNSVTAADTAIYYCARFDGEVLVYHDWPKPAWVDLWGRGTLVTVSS VL: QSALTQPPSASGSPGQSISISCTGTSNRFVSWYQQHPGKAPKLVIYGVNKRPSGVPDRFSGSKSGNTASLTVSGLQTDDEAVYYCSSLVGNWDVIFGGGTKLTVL" quantitative_readout=102
binder="PGT-130 (B cell culture well 5147_N6) (antibody, V domains shown) VH: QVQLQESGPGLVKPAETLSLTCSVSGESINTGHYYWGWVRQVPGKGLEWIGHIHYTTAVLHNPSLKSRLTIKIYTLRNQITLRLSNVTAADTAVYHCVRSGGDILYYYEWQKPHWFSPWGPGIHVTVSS VL: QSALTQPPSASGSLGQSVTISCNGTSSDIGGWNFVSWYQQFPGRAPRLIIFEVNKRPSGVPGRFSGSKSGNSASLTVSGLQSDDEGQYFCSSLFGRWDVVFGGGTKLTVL" quantitative_readout=1.05

[ask] Please look at this binder and report its Polyclonal Transfectant Neutralization Index: PGT-125 (B cell culture well 5123_A6) (antibody, V domains shown) VH: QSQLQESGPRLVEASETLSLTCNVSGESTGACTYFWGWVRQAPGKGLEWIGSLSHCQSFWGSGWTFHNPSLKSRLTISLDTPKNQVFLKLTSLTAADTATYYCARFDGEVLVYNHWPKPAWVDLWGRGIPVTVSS VL: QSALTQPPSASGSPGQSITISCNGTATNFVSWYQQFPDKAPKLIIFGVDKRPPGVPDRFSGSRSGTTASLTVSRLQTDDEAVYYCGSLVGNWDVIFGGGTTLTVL
[reply] 88.3

[ask] # return recorded Polyclonal Transfectant Neutralization Index for input PGT-128 (B cell culture well 5114_A19) (antibody, V domains shown) VH: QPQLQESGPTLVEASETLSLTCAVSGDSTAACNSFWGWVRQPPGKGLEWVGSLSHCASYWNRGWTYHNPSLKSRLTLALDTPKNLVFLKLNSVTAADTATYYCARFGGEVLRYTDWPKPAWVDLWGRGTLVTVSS VL: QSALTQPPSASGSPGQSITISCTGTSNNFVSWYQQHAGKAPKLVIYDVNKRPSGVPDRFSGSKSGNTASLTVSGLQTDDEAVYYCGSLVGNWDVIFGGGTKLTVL
[reply] 32.2

[ask] Recall and state the measured Polyclonal Transfectant Neutralization Index for PGT-127 (B cell culture well 5145_B14) (antibody, V domains shown) VH: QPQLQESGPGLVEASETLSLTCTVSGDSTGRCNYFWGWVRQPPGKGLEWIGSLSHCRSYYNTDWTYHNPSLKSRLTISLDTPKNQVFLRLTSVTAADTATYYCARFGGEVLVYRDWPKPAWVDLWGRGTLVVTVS VL: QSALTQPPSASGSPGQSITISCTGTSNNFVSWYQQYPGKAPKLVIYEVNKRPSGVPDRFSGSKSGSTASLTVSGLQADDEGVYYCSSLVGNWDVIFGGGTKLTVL .
[reply] 2.62
